So I've got a bunch of binders here, and I need their IC50 (nM) Ca2+ assay (method 2) values.
target: human CXCR4 (human, UniProt P61073 1-352); test: cell-based or functional assay
Sequence (P61073 whole entry): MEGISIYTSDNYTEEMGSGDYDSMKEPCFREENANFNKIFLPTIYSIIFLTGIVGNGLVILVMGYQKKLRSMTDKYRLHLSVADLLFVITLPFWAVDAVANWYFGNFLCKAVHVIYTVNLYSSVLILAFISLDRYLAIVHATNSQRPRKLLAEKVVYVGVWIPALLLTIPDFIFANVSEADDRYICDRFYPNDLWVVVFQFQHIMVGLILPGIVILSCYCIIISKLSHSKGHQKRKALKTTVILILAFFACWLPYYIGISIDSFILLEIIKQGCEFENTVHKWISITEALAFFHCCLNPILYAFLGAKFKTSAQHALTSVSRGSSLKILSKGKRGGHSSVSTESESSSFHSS
Bridges are numbered along the chain shown (N, C = ends). [ ]: non-standard residue; d: D form. Cit = NC(=O)NCCC[C@H](N)C(=O)O
Answers are plain numbers, in nM.

{"binder": "cyclo(YR[Cit]SRG[dP]RRWNY[Cit]K[dP]P) (SMILES N=C(N)NCCC[C@@H]1NC(=O)[C@H](CO)NC(=O)[C@H](CCCNC(N)=O)NC(=O)[C@H](CCCNC(=N)N)NC(=O)[C@H](Cc2ccc(O)cc2)NC(=O)[C@@H]2CCCN2C(=O)[C@H]2CCCN2C(=O)[C@H](CCCCN)NC(=O)[C@H](CCCNC(N)=O)NC(=O)[C@H](Cc2ccc(O)cc2)NC(=O)[C@H](CC(N)=O)NC(=O)[C@H](Cc2c[nH]c3ccccc23)NC(=O)[C@H](CCCNC(=N)N)NC(=O)[C@H](CCCNC(=N)N)NC(=O)[C@H]2CCCN2C(=O)CNC1=O) [Example 151]", "assay readout": "IC50 (nM) Ca2+ assay (method 2)", "value reported": 4.2}

Would you kindly look at the next entry?
Reported IC50 (nM) Ca2+ assay (method 2), binder cyclo(YR[Cit]CRG[dP]RRYCY[Cit]K[dP]P) (disulfide 4-11; SMILES N=C(N)NCCC[C@@H]1NC(=O)[C@@H]2CSSC[C@H](NC(=O)[C@H](Cc3ccc(O)cc3)NC(=O)[C@H](CCCNC(=N)N)NC(=O)[C@H](CCCNC(=N)N)NC(=O)[C@H]3CCCN3C(=O)CNC1=O)C(=O)N[C@@H](Cc1ccc(O)cc1)C(=O)N[C@@H](CCCNC(N)=O)C(=O)N[C@@H](CCCCN)C(=O)N1CCC[C@@H]1C(=O)N1CCC[C@H]1C(=O)N[C@@H](Cc1ccc(O)cc1)C(=O)N[C@@H](CCCNC(=N)N)C(=O)N[C@@H](CCCNC(N)=O)C(=O)N2) [Example 112] : ____
7.8
